# SYSTEM: von Willebrand factor full length (Homo sapiens, UniProt P04275 SEQ:764-2813)
# METHOD_NOTES: filter; 38.5% bound at 100 nM vWF
# CONDITION_DETAILS: tags: Calbiochem 681300; label: 5'-32P
ENDPOINT: pKd
Numbers only, as −log10 of the molar value.

Reported pKd for GCGUGCAGUGCCUUCGGCCGTGCGGTGCCUCCGUCACGC (mixed, 2'-OMe/deoxy composite, 3'-idT) [ARC1361] was 8.10
